Literature pIC50 values, system: GST-Xa-hAAK1 (Homo sapiens (Human), UniProt Q2M2I8).
Sequence (Q2M2I8 whole entry): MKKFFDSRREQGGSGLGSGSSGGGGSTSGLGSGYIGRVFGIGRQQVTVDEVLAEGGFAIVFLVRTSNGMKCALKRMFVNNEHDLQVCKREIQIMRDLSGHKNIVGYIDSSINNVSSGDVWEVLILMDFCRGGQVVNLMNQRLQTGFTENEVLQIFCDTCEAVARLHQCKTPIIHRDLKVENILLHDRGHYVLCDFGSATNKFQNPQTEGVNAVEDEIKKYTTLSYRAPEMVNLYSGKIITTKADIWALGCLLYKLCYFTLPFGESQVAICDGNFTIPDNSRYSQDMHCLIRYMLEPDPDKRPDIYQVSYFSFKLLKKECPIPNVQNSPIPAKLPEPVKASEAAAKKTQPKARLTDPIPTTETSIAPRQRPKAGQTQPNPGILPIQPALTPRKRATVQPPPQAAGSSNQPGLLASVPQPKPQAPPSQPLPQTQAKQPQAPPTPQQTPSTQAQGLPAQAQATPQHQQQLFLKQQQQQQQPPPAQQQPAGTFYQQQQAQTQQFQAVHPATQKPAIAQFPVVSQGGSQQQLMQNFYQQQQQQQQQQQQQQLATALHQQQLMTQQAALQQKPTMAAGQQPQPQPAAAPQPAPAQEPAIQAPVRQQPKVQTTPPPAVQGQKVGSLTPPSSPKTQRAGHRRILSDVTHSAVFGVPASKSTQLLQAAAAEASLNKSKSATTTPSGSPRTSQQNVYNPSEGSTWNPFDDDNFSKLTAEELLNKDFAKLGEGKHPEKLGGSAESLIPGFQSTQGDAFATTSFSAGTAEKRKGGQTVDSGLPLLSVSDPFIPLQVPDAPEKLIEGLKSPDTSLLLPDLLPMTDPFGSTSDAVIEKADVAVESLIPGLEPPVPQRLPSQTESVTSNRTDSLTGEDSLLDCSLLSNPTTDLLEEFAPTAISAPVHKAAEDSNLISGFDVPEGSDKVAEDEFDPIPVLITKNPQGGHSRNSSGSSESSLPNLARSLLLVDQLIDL
Numbers only, as −log10 of the molar value.

Sample records with pIC50:
COC(=O)Nc1cc(-c2ccc(OC[C@@](C)(N)CC(C)C)c(C)n2)ccn1 8.96
Cc1ccc2c(-c3ccc(OC[C@@](C)(N)CC(C)C)c(C#N)c3)ccnc2c1 8.89
Cc1cc(-c2cnc(OC[C@@](C)(N)CC(C)C)c(C)c2)ncn1 6.50
CC(C)C[C@](C)(N)COc1ccc(-c2ccnc(Cl)n2)cc1C#N 8.85
CC(=O)Nc1cc(-c2cc(F)c(OC[C@@H](N)CC(C)C)c(Cl)c2)ccn1 8.00

Look at each molecule and report its pIC50.
1. Cc1nc(-c2cccc(NC(=O)c3cnc4c(Nc5ccccc5)cc(N[C@H]5CC[C@H](N)CC5)nn34)c2)cs1
2. CC(C)C[C@](C)(N)COc1ccc(-c2ccnc3ccccc23)c2ccccc12
3. COc1cc(-c2ccnc3ccccc23)cnc1OC[C@@](C)(N)CC(C)C

1. 6.94
2. 7.68
3. 7.80

----------
Literature log10 IC50 values, system: GST-Xa-hAAK1 (Homo sapiens (Human)).
Please be aware that the numbers have been log10-transformed from IC50 in nM.

Molecule	Observation Type	Endpoint Value
CC(C)C[C@H](N)COc1ccc2c(c1)C(C)Oc1cnccc1-2 (stereo partly shown)	log10 IC50	1.23
Cc1cc(-c2ccc(OC[C@@](C)(N)CC(C)C)c(C(F)(F)F)c2)ccn1	log10 IC50	0.08
COc1cc(-c2ccc(OC[C@@](C)(N)CC(C)C)c(C(F)(F)F)c2)ncn1	log10 IC50	2.49
CC(C)C[C@](C)(N)COc1ccc(-c2cc(Cl)ncn2)cc1C#N	log10 IC50	1.18
COC(=O)Nc1cc(-c2ccc(OC[C@@](C)(N)CC(C)C)c3ccccc23)ccn1	log10 IC50	0.66

Look at each molecule and report its log10 IC50.
1. COC(=O)Nc1nccc(-c2ccc(OC[C@@](C)(N)CC(C)C)c(C(F)(F)F)c2)n1
2. CC(C)C[C@](C)(N)COc1cnc(-c2ccnc3ccc(C(F)(F)F)cc23)cc1C(F)F
3. Cc1cc2c(cn1)OCc1cc(OC[C@@](C)(N)CC(C)C)ccc1-2
4. CC(C)CC1(COc2ccc(-c3ccnc(C(F)F)c3)nc2C(F)F)CCN1 (stereo not shown)
5. CC(=O)Nc1cc(-c2ccc(OC[C@@](C)(N)CC(C)C)c(F)c2)ccn1

1: -0.22; 2: -0.04; 3: 2.08; 4: 1.62; 5: 0.00

Look at each molecule and report its log10 IC50.
1. COC(=O)Nc1cc(-c2cnc(OC[C@@](C)(N)CC(C)C)c(C(F)F)c2)ccn1
2. Cc1nc(-c2cc(N)ncn2)ccc1OC[C@@](C)(N)CC(C)C
3. Cc1cc(-c2ccnc(Cl)n2)ccc1OC[C@@](C)(N)CC(C)C
4. CCOC(=O)Nc1nc(Cl)c2c(c1Cl)-c1ccc(OC[C@@](C)(N)CC(C)C)cc1CO2
5. [2H]C([2H])([2H])n1c(=O)c2cc(OC[C@@](C)(N)CC(C)C)ccc2c2ccnc(C)c21
6. CC(C)C[C@](C)(N)COc1cnc(-c2ccnc3ccc(F)cc23)cc1C(F)F
7. Cc1cc(-c2cc(C(F)(F)F)c(OC[C@](C)(N)CC(C)C)cn2)ccn1

1. -0.70
2. 1.28
3. 0.65
4. 1.65
5. 1.66
6. 0.18
7. 2.40

Look at each molecule and report its log10 IC50.
1. COC(=O)Nc1nccc(-c2ccc(OC[C@@](C)(N)CC(C)C)c(C)n2)c1F
2. CCN(c1ccc2ncc(-c3ccc4cn[nH]c4c3)n2n1)C1CCOCC1

[1.28, 4.20]
